Origin of measurements: patent US8778966B2

Items are presented alongside their recorded IC50.
measured target: Human PARP-1 enzyme (Homo sapiens, UniProt P09874)
Construct: purchased Trevigen
Sequence (P09874 whole entry): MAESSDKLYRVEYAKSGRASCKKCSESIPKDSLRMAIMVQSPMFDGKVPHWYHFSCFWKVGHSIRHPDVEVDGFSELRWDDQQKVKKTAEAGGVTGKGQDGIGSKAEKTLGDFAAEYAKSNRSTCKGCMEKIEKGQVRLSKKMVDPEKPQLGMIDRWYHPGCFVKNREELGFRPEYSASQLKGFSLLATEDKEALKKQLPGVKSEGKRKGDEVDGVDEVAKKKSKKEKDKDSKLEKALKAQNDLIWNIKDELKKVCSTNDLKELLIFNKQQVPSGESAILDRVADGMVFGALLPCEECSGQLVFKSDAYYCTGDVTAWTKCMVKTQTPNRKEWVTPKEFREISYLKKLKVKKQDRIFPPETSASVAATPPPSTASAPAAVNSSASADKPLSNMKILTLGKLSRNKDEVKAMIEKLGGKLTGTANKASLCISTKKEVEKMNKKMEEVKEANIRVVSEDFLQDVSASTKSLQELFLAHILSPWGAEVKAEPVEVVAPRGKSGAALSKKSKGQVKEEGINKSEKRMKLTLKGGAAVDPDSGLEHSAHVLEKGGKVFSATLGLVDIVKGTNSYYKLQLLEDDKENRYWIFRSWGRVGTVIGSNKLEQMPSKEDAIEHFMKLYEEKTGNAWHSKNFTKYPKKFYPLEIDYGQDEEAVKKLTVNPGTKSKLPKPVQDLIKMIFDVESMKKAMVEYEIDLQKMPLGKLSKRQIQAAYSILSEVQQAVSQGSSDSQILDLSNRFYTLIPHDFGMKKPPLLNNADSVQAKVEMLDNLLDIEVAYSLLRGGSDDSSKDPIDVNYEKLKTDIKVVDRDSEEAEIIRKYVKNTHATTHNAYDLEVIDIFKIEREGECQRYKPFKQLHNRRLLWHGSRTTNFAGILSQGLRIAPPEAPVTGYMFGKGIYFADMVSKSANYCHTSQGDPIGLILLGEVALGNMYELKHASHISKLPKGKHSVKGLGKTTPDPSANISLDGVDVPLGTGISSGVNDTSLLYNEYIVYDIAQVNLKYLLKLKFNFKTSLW
procedure summary: In vitro Scintillation Proximity Assay (SPA) for PARP-1 inhibitory activity
Assay type: biochemical
test conditions: read-out: in vitro SPA assay PARP-1 pIC50 (converted)
API: value field is a number in nM; no unit string.

Sample records with IC50:
>>> numeric_readout("CCc1cc2ccc(C(C)(C#N)Cc3ccc(F)cc3Br)cc2[nH]c1=O (stereo not shown)")
1260
>>> numeric_readout("CCc1cc2ccc(C(C)(C#N)Cc3cccc(N(C)C)c3)cc2[nH]c1=O (stereo not shown)")
398
>>> numeric_readout("CCc1cc2ccc(C(C)(C#N)Cc3ccc(C)cc3)cc2[nH]c1=O (stereo not shown)")
398
>>> numeric_readout("COc1ccccc1-c1nc(CC(C)(C#N)c2ccc3cc(C)c(=O)[nH]c3c2)no1 (stereo not shown)")
1260
>>> numeric_readout("CCc1cc2ccc(C(C)(C#N)Cc3ccc(C(F)(F)F)cc3)cc2[nH]c1=O (stereo not shown)")
1260
>>> numeric_readout("CCc1cc2ccc(C(C)(C#N)CN3CCN(c4ccc(C#N)cn4)CC3)cc2[nH]c1=O (stereo not shown)")
50.1
>>> numeric_readout("CCc1cc2ccc(C(C)(C#N)Cc3cc(Cl)cc(Cl)c3)cc2[nH]c1=O (stereo not shown)")
1000
>>> numeric_readout("Cc1cc2ccc([C@@](C)(C#N)[C@H]3CCc4ccc(Br)cc43)cc2[nH]c1=O")
316
>>> numeric_readout("CCc1cc2ccc(C(C)(C#N)Cc3cc(C(C)C)ccc3OC)cc2[nH]c1=O (stereo not shown)")
158

Attention now turns to another entry.
// assay Human PARP-1 enzyme (Homo sapiens, UniProt P09874), entry CCc1cc2ccc(C(C)(C#N)CCOc3cccc(C)c3)cc2[nH]c1=O (stereo not shown) , IC50 value = 794
